These data points were gathered from paper PMC2768111.

Target: PTK5 (Homo sapiens)
Sequence (P42685 whole entry): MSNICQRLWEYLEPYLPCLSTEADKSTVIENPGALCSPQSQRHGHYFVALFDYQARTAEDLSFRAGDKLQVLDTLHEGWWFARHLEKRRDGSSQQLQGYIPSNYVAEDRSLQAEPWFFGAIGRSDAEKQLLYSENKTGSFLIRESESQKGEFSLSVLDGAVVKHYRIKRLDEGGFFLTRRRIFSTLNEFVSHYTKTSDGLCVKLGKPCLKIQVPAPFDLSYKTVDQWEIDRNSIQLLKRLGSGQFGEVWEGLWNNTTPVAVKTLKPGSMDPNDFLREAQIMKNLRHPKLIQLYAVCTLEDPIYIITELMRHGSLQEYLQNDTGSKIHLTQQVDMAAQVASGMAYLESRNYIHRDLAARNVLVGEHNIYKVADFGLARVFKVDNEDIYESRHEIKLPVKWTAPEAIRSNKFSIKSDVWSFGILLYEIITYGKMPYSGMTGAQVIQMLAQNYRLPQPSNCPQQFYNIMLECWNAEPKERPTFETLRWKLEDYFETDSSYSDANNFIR
READOUT NAME: IC50
Answer as a quantity: numeral, then unit.

State IC50 on PTK5 (Homo sapiens). Entry: `Cc1ccc(Nc2nccc(N(C)c3ccc4c(C)n(C)nc4c3)n2)cc1S(N)(=O)=O`
0.097 µM

----------
System: human bone marrow progenitor cells
Test: Bone marrow progenitor growth
Format: cell-based
Details: CFU-GM, 240 h, read-out: IC50, CFU-GM formation induced by GM-CSF
READOUT NAME: IC50 (nM)
I only need the number, in nM, no unit after it.

Param request: IC50 | system human bone marrow progenitor cells | item `CCN(CC)CCNC(=O)c1c(C)[nH]c(/C=C2\C(=O)Nc3ccc(F)cc32)c1C`
32.7
